testTarget: DNMT3b (Homo sapiens)
assay: DNMT3b activity assay (Lambda DNA substrate, ^3H-SAM)
Type: biochemical
quantityKind: pIC50
Please treat pIC50 as minus the base-10 logarithm of the molar concentration.

API: value(readout= pIC50, system= DNMT3b (Homo sapiens), query= CC(CO)CCC[C@@H](C)[C@H]1CC[C@H]2[C@@H]3CC=C4C[C@@H](OS(=O)(=O)O)CC[C@]4(C)[C@H]3CC[C@]12C (stereo partly drawn) [27HC3S, 5-cholesten-3β, 27-diol 3-sulfate] )
5.57

----------
testTarget: DNMT1 (Homo sapiens)
Sequence (P26358 whole entry): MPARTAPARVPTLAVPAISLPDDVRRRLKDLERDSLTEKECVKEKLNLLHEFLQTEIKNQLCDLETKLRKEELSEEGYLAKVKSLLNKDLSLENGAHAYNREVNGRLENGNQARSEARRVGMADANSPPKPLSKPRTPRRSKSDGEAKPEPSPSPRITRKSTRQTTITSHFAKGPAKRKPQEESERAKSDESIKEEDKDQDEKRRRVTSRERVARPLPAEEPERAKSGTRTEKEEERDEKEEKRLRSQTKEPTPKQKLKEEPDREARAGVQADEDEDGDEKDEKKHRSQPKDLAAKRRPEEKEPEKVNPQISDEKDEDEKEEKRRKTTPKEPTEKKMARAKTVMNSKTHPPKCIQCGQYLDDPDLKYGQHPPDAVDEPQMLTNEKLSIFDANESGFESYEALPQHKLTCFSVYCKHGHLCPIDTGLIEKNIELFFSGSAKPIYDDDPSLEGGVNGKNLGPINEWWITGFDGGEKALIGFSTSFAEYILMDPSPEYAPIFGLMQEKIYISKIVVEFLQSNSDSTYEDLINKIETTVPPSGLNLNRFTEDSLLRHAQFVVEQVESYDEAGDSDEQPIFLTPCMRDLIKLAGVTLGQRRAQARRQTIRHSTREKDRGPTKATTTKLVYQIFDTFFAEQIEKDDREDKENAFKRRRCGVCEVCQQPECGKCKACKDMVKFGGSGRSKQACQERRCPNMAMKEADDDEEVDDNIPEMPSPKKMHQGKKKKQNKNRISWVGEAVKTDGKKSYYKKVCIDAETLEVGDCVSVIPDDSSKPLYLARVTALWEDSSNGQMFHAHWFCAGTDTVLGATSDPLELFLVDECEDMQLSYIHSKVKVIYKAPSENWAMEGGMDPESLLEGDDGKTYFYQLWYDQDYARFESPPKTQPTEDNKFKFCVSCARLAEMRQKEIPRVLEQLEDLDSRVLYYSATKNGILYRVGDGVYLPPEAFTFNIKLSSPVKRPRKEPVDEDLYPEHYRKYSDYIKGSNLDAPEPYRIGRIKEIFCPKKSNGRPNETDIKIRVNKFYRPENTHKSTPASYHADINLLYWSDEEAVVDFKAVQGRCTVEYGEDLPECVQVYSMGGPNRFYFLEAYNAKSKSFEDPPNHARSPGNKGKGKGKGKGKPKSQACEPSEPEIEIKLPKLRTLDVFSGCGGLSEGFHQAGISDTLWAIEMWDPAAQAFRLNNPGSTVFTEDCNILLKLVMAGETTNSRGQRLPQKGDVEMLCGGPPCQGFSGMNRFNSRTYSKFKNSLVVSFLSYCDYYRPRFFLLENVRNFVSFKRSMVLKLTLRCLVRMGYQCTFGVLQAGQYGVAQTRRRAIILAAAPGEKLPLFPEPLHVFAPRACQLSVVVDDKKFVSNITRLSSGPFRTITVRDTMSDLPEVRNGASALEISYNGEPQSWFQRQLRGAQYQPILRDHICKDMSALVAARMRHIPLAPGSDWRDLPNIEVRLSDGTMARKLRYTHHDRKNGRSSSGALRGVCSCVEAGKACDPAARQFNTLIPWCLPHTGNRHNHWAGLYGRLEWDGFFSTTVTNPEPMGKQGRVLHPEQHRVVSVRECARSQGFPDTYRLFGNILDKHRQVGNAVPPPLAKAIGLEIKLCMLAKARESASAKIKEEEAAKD
assay: DNMT1 activity assay (Poly(dI-dC) substrate, ^3H-SAM)
conditionContext: read-out: EC50, activation of DNMT-1
quantityKind: EC50 (µM)
Provide only the numeric value, understood in µM.

compound	testTarget	unitOfMeasure	reportedResult
C[C@@H](CO)CCC[C@@H](C)[C@H]1CC[C@H]2[C@@H]3CC=C4C[C@@H](O)CC[C@]4(C)[C@H]3CC[C@]12C [27HC, 27-Hydroxycholesterol]	DNMT1 (Homo sapiens)	µM	33

Let's switch to this compound now.
Return reported EC50; argument: C[C@H](CCCC(C)(C)O)[C@H]1CC[C@H]2[C@@H]3CC=C4C[C@@H](O)CC[C@]4(C)[C@H]3CC[C@]12C [25HC, 25-Hydroxycholesterol, reference compound]
3.5

Values compiled from patent US20230218639A1.
